# Test protocol: cytotoxicity of additional thiazole compounds (Table 3)
# Format: cell-based
# Experimental parameters: cell line not given
# Text: The additional thiazole compounds were synthesized and tested for antimigration efficacy and cytotoxicity, with results shown in TABLE 3.
Cytotoxicity (Survival at 1 μM) values by entry
Endpoint name: Cytotoxicity (Survival at 1 μM) (%)

1. CCCCCCn1c(-c2ccc(C)cc2C)csc1=NC(=O)c1ccccc1 :: 90.0
2. Cc1sc(=NC(=O)c2ccccc2)n(C)c1-c1ccc(F)cc1 [Compound 15i] :: 83.8
3. Cn1c(-c2ccccc2Cl)csc1=NC(=O)c1ccccc1 [Compound 15b] :: 72.2
4. COc1ccc(C(=O)Nc2nc(-c3cc(OC)c(OC)c(OC)c3)cs2)cc1 [Compound 14k] :: 93.8
5. Cn1c(C2CC2)csc1=NC(=O)c1ccccc1 [Compound 15n] :: 90.7

----------
# Test protocol: cytotoxicity of additional thiazole compounds (Table 3)
# Format: cell-based
# Experimental parameters: cell line not given
Cytotoxicity (Survival at 1 μM) values by entry
Endpoint name: Cytotoxicity (Survival at 1 μM)

1) Cc1ccc(-c2csc(NS(=O)(=O)c3ccccc3)n2)c(C)c1 :: 137.4%
2) O=C(Nc1nc(-c2cccc(Cl)c2)cs1)c1ccccc1 [Compound 14e] :: 71.4%
3) CCN(C(=O)c1ccccc1)c1nc(-c2ccccc2)cs1 :: 68.5%
4) COc1ccc(C(=O)N(C)c2nc(-c3cc(OC)c(OC)c(OC)c3)cs2)c(OC)c1 [Compound 16i] :: 118.5%
5) COc1ccc(C(=O)Nc2nc(-c3cc(OC)c(OC)c(OC)c3)cs2)c(OC)c1 [Compound 14n] :: 93.8%
6) Cc1ccc(-c2cn(C)/c(=N\C(=O)c3ccccc3)s2)cc1 [Compound 15j] :: 112.6%
7) CN(C(=O)c1ccccc1)c1nc(-c2cccc(Br)c2)cs1 [Compound 16b] :: 104.4%
8) Cc1ccc(-c2cnc(NC(=O)c3ccccc3)s2)cc1 [Compound 14j, N-(5-(p-Tolyl)thiazol-2-yl)benzamide] :: 55.6%
9) Cc1csc(=NC(=O)c2ccccc2)n1C [Compound 15a] :: 102.6%
10) COc1cc(-c2cs/c(=N/C(=O)c3ccccc3)n2C)cc(OC)c1OC [Compound 15g] :: 88.4%
11) COc1cc(C(=O)N(C)c2nc(-c3cc(OC)c(OC)c(OC)c3)cs2)cc(OC)c1OC [Compound 16j] :: 114.8%
12) C=CCn1c(-c2ccc(C)cc2C)csc1=NC(=O)c1ccccc1 :: 115.3%
13) COc1cccc(C(=O)Nc2nc(-c3cc(OC)c(OC)c(OC)c3)cs2)c1 [Compound 14r] :: 92.6%
14) COc1cc(C(=O)Nc2nc(-c3cc(OC)c(OC)c(OC)c3)cs2)cc(OC)c1OC [Compound 14o] :: 77.6%
15) Cn1c(-c2cc(C(F)(F)F)cc(C(F)(F)F)c2)csc1=NC(=O)c1ccccc1 [Compound 15f] :: 79.8%
16) O=C(Nc1nc(-c2ccccc2Cl)cs1)c1ccccc1 [Compound 14b] :: 102.4%
17) COc1ccccc1C(=O)N(C)c1nc(-c2cc(OC)c(OC)c(OC)c2)cs1 [Compound 16l] :: 109.3%
18) CCn1c(-c2ccccc2)csc1=NC(=O)c1ccccc1 :: 128.9%

----------
# Test protocol: cytotoxicity of additional thiazole compounds (Table 3)
# Assay type: cell-based
# Experimental parameters: cell line not given
Endpoint name: Cytotoxicity (Survival at 1 μM)

1) CCCN(C(=O)c1ccccc1)c1nc(-c2ccccc2)cs1 :: 116.0%
2) COc1ccc(C(=O)N=c2scc(-c3cc(OC)c(OC)c(OC)c3)n2C)cc1 [Compound 15k] :: 105.6%
3) COc1cc(-c2csc(N(C)C(=O)c3cccc(OC)c3OC)n2)cc(OC)c1OC [Compound 16k] :: 117.6%
4) Cc1sc(=NC(=O)c2ccccc2)n(C)c1-c1ccccc1 [Compound 15h] :: 68.4%
5) COc1cc(-c2csc(NC(=O)c3ccc(Cl)cc3)n2)cc(OC)c1OC [Compound 14l] :: 85.6%
6) CCCCn1c(-c2ccc(C)cc2C)csc1=NC(=O)c1ccccc1 :: 70.4%
7) COc1ccccc1C(=O)Nc1nc(-c2cc(OC)c(OC)c(OC)c2)cs1 [Compound 14q] :: 103.7%
8) C#CCN(C(=O)c1ccccc1)c1nc(-c2ccc(C)cc2C)cs1 :: 106.4%
9) COc1cc(-c2csc(=NC(=O)c3ccc(Cl)cc3)n2C)cc(OC)c1OC [Compound 15l] :: 77.6%

----------
Cytotoxicity (Survival at 1 μM) values by entry
# Test protocol: cytotoxicity of additional thiazole compounds (Table 3)
# Assay type: cell-based
# Experimental parameters: cell line not given
Endpoint name: Cytotoxicity (Survival at 1 μM) (%)

1. CCCn1c(-c2ccc(C)cc2C)csc1=NC(=O)c1ccccc1 [Compound 5m] :: 85.0
2. Cc1sc(NC(=O)c2ccccc2)nc1-c1ccccc1 [Compound 14h] :: 99.0
3. Cc1ccc(-c2csc(N(C)S(=O)(=O)c3ccccc3)n2)c(C)c1 [Compound 12] :: 116.7
4. CCCn1c(-c2ccccc2)csc1=NC(=O)c1ccccc1 [Compound 7b] :: 100.0
5. Cn1c(-c2cccc(Cl)c2)csc1=NC(=O)c1ccccc1 [Compound 15e] :: 35.2
6. C=CCn1c(-c2ccccc2)csc1=NC(=O)c1ccccc1 [Compound 7c] :: 64.8
7. Cc1ccc(-c2csc(=NS(=O)(=O)c3ccccc3)n2C)c(C)c1 [Compound 11] :: 92.4
8. CCn1c(-c2ccc(C)cc2C)csc1=NC(=O)c1ccccc1 [Compound 5l] :: 141.8
9. C#CCn1c(-c2ccccc2)csc1=NC(=O)c1ccccc1 [Compound 7d] :: 63.0
10. O=C(Nc1nc(-c2ccc(Br)cc2)cs1)c1ccccc1 [Compound 14d] :: 82.2
11. O=C(Nc1nc(-c2cc(C(F)(F)F)cc(C(F)(F)F)c2)cs1)c1ccccc1 [Compound 14f] :: 85.8
12. C#CCn1c(-c2ccc(C)cc2C)csc1=NC(=O)c1ccccc1 [Compound 5r] :: 70.2

----------
Cytotoxicity (Survival at 1 μM) values by entry
# Test protocol: cytotoxicity of additional thiazole compounds (Table 3)
# Assay type: cell-based
# Experimental parameters: cell line not given
Endpoint name: Cytotoxicity (Survival at 1 μM) (%)

1. Cn1c(-c2cccc(Br)c2)csc1=NC(=O)c1ccccc1 [Compound 15c] :: 94.4
2. COc1ccc(C(=O)N(C)c2nc(-c3cc(OC)c(OC)c(OC)c3)cs2)cc1 [Compound 16g] :: 100.0
3. COc1cc(-c2csc(N(C)C(=O)c3ccccc3)n2)cc(OC)c1OC [Compound 16d] :: 96.4
4. Cc1sc(N(C)C(=O)c2ccccc2)nc1-c1ccc(F)cc1 [Compound 16e] :: 107.6
5. COc1cccc(C(=O)N=c2scc(-c3cc(OC)c(OC)c(OC)c3)n2C)c1 [Compound 15m] :: 103.5

----------
# Test protocol: cytotoxicity of additional thiazole compounds (Table 3)
# Assay type: cell-based
# Experimental parameters: cell line not given
Cytotoxicity (Survival at 1 μM) values by entry
Endpoint name: Cytotoxicity (Survival at 1 μM) (%)

1) Cn1c(-c2ccc(Br)cc2)csc1=NC(=O)c1ccccc1 [Compound 15d] :: 59.3
2) COc1cc(C(=O)/N=c2/scc(-c3cc(OC)c(OC)c(OC)c3)n2C)cc(OC)c1OC [Compound 15o] :: 81.5
3) CN(C(=O)c1ccccc1)c1nc(-c2ccccc2Cl)cs1 [Compound 16a] :: 88.9
4) Cc1ccc(-c2cnc(N(C)C(=O)c3ccccc3)s2)cc1 [Compound 16f] :: 59.3
5) COc1ccc(C(=O)Nc2nc(-c3cc(OC)c(OC)c(OC)c3)cs2)cc1OC [Compound 14m] :: 87.3

----------
# Test system: MDA-MB-231 breast cancer cells
# Test protocol: transwell migration assay, MDA-MB-231
# Format: cell-based
# Experimental parameters: Homo sapiens, MDA-MB-231, MDA-MB-231, 10 μM; read-out: inhibition of cell migration
Endpoint name: inhibition at 10 µM

1) CN(C(=O)c1ccccc1)c1nc(-c2ccccc2)cs1 :: > 50%
2) COc1ccc(C(=O)Nc2nc(-c3ccccc3)cs2)cc1OC :: > 80%
3) CCCCCCCCCCCC(=O)Nc1nc(-c2ccccc2)cs1 [Compound 3n, N-(4-Phenylthiazol-2-yl)dodecanamide] :: > 50%
4) Cc1ccc(-c2csc(N)n2)c(C)c1 :: > 50%
